Where do these numbers come from? They come from patent US11718628B2.

assay: Half-life in mouse liver microsomes; type: in vitro ADME; details: mouse, liver microsomes, read-out: H: half-life of mouse liver microsomes
Collected half-life at 1 µM values appear next to each entry.

Worked cases, answers included:
CC(C)(C)c1cc(-c2cncc(-c3ccc(NS(=O)(=O)CC(F)(F)F)cc3Cl)c2)ccn1 | > 2 h
CC(C)(C)c1cc(-c2cccc(-c3ccc(NS(=O)(=O)CC(F)(F)F)cc3Cl)c2)ccn1 | > 2 h

# evaluate next
I have this compound here, "CC(C)(CO)c1cc(-c2cncc(-c3ccc(NS(C)(=O)=O)cc3Cl)c2)ccn1" , and I need its recorded half-life at 1 µM.
> 2 h
